B1: KCNAB2 (parent)
chain: IPPYSRASLKGYQWLKDKILSEEG

variants of: B1; assay: protein stability index of a GFP-peptide fusion (GPS, HEK-293T) (PSI 1-6); higher = more stable; conditions: c terminus: a fixed tail appended;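 also: lentivirally expressed fusions sorted by FACS into six bins by GFP to DsRed ratio, PSI derived from sequencing read proportions per bin multiplied by bin number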
Reported Property: protein stability index

Inquiry: // lookup protein stability index for R6Q
Reply text: 3.23

Inquiry: Try this variant too: K18L
Reply text: 1.6

Inquiry: Try this variant too: Y4C
Reply text: 1.6

Inquiry: Try this variant too: R6K
Reply text: 2.56

Inquiry: Try this variant too: L20G
Reply text: 2.19

Inquiry: Try this variant too: P2L
Reply text: 2.04

Inquiry: Try this variant too: S21Y
Reply text: 2.08

Inquiry: Try this variant too: W14P
Reply text: 3.97

Inquiry: Try this variant too: P2N
Reply text: 1.86

Inquiry: Try this variant too: L15Y
Reply text: 2.19

Inquiry: Try this variant too: G11R
Reply text: 2.66

Inquiry: Try this variant too: D17I
Reply text: 1.69

Inquiry: Try this variant too: G24C
Reply text: 2.06

Inquiry: Try this variant too: Y12G
Reply text: 3.5

Inquiry: Try this variant too: G11C
Reply text: 1.92

Inquiry: Try this variant too: I19S
Reply text: 3.16

Inquiry: Try this variant too: P3I
Reply text: 2.28

Inquiry: Try this variant too: Q13L
Reply text: 1.16

Inquiry: Try this variant too: Y4T
Reply text: 2.33

Inquiry: Try this variant too: S5A
Reply text: 2.15

Inquiry: Try this variant too: G11E
Reply text: 3.51

Inquiry: Try this variant too: S8E
Reply text: 1.31

Inquiry: Try this variant too: L20S
Reply text: 2.92

Inquiry: Try this variant too: Y12H
Reply text: 3.62

Inquiry: Try this variant too: Y12T
Reply text: 3.81

Inquiry: Try this variant too: E23Y
Reply text: 2.18

Inquiry: Try this variant too: Q13N
Reply text: 2.32

Inquiry: Try this variant too: I1E
Reply text: 3.38

Inquiry: Try this variant too: R6T
Reply text: 2.59

Inquiry: Try this variant too: W14V
Reply text: 3.6

Inquiry: Try this variant too: K16I
Reply text: 2.49

Inquiry: Try this variant too: K18V
Reply text: 3.75

Inquiry: Try this variant too: K18A
Reply text: 2.63

Inquiry: Try this variant too: A7R
Reply text: 1.95

Inquiry: Try this variant too: S8F
Reply text: 2.21

Inquiry: Try this variant too: L9G
Reply text: 3.22

Inquiry: Try this variant too: E23T
Reply text: 3.2

Inquiry: Try this variant too: R6F
Reply text: 2.16

Inquiry: Try this variant too: I19L
Reply text: 2.86

Inquiry: Try this variant too: S8D
Reply text: 2.53

Inquiry: Try this variant too: S5N
Reply text: 2.21

Inquiry: Try this variant too: K16P
Reply text: 3.39

Inquiry: Try this variant too: S8N
Reply text: 2.53

Inquiry: Try this variant too: S8Q
Reply text: 2.72

Inquiry: Try this variant too: Y4F
Reply text: 2.14

Inquiry: Try this variant too: E22V
Reply text: 1.22

Inquiry: Try this variant too: G24M
Reply text: 2.56

Inquiry: Try this variant too: W14M
Reply text: 3.66

Inquiry: Try this variant too: A7N
Reply text: 2.22

Inquiry: Try this variant too: Q13P
Reply text: 2.03

Inquiry: Try this variant too: G24A
Reply text: 2.31

Inquiry: Try this variant too: L20D
Reply text: 3.91

Inquiry: Try this variant too: G11D
Reply text: 2.89

Inquiry: Try this variant too: E22R
Reply text: 1.62
